Recorded values, source ChEMBL document CHEMBL1961873.

Experimental target: Ribosomal protein S6 kinase beta-1 (Homo sapiens) (UniProt P23443);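 also: reported value is the mean inhibition of p70S6K1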
Sequence (P23443 whole entry, looked up): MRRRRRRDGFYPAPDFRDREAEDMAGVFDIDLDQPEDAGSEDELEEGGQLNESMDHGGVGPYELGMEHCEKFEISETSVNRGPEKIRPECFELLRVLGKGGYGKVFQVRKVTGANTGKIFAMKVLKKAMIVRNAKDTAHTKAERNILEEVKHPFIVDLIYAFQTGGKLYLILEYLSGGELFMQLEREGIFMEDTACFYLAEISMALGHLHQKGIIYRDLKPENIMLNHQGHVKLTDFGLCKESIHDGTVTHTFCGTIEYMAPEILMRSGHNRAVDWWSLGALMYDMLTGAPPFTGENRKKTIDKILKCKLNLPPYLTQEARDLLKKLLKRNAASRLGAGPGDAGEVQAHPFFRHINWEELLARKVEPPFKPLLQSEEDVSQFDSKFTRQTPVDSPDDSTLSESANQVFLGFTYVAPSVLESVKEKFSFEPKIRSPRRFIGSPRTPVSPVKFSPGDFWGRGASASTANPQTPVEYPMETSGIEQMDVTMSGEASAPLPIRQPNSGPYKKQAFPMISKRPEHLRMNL
Settings: at 0.1 µM
Classify by measured inhibition: satisfied if it is equal to or exceeds 0.9%, not satisfied if it is smaller.

Use these answered entries as a reference point.
| Compound | Assigned class |
| --- | --- |
| COc1cc2ncn(-c3cc(OCc4ccccc4C(F)(F)F)c(C(N)=O)s3)c2cc1OC | satisfied |
| COc1ccc2cc(-c3c(-c4ccncc4)nc(-c4ccc([S+](C)[O-])cc4)n3C)ccc2c1 (stereo not given) | satisfied |
| Cc1nnc(-c2ccc(C)c(-c3ccc(C(=O)Nc4cccc(C#N)c4)cc3)c2)o1 | satisfied |
| CC(=O)Nc1cccc(C#Cc2cncnc2Nc2ccc(OCc3cccc(F)c3)c(Cl)c2)n1 | not satisfied |
| c1cnn2ncc(-c3ccnc(Nc4ccc5c(c4)OCCO5)n3)c2c1 | satisfied |
| Cc1cc(O)cc(C)c1/C=C/c1cncc(-c2nn[nH]n2)c1 | satisfied |
| Cc1cccc(-c2n[nH]cc2-c2ccc3ncccc3n2)n1 | not satisfied |
| COc1ccccc1Nc1ncc(-c2ccccc2)o1 | satisfied |

Could you now consider this next compound?
Query: Tell me whether inhibition is at least 0.9% here: O=C1NC(=O)C(c2cccc(Cl)c2)=C1Nc1ccc(O)c(Cl)c1
Reply: not satisfied

----------
Experimental target: Serine/threonine-protein kinase Nek6 (Homo sapiens);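 also: values are mean inhibition of NEK6 from the GSK PKIS screen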
Settings: at 1 µM
Recorded metric: inhibition (%)
Write the value in % as a bare number.

Some solved cases for reference:
| Molecule | Experimental target | Recorded metric | Readout number |
| --- | --- | --- | --- |
| O=C(Nc1n[nH]c2nc(-c3ccco3)c(Br)cc12)C1CC1 | Serine/threonine-protein kinase Nek6 (Homo sapiens) | inhibition | 0.56 |
| CS(=O)(=O)CCN(CC#N)Cc1ccc(-c2ccc3ncnc(Nc4ccc(OCc5cccc(F)c5)c(Cl)c4)c3c2)o1 | Serine/threonine-protein kinase Nek6 (Homo sapiens) | inhibition | -0.23 |

Just so you know, measured inhibition for CCn1c(-c2nonc2N)nc2cncc(C(=O)N3CCNCC3)c21 came out at 3.67

Just so you know, measured inhibition for CS(=O)(=O)Nc1ccc(N/C=C2\C(=O)Nc3ccccc32)cc1 came out at -2.98

Just so you know, measured inhibition for Cc1nn(C)c2cc(N(C)c3ccnc(Nc4cccc(S(N)(=O)=O)c4)n3)ccc12 came out at 1.3

----------
Experimental target: Non-receptor tyrosine-protein kinase TNK1 (Homo sapiens);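 also: reported values are mean inhibition figures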
Settings: at 0.1 µM
Recorded metric: inhibition
Record the result as a number with its unit.

Some solved cases for reference:
| Compound | inhibition |
| --- | --- |
| COc1ccc(COc2ccc(Cc3cnc(N)nc3N)cc2OC)cc1 | 0.7% |
| CCN1CCC(CC(=O)Nc2n[nH]c3nc(-c4cccs4)c(Br)cc23)CC1 | -7.55% |
| COC(=O)Nc1nc2cc(Oc3ccc(NC(=O)Nc4cccc(C(=O)O)c4)cc3)ccc2[nH]1 | -0.91% |

Just so you know, measured inhibition for COc1cccc(-n2ncc3c(N/N=C/c4cccc(F)c4)ncnc32)c1 came out at 2.13%

----------
Experimental target: Serine/threonine-protein kinase Chk1 (Homo sapiens);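 also: mean inhibition of CHEK1, part of the GSK PKIS profiling set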
Settings: at 1 µM
Recorded metric: inhibition

| Compound | inhibition |
| --- | --- |
| COc1cc(C)c(NC(=O)CN(C)C)cc1Nc1nc(Nc2cccc(F)c2C(N)=O)c2cc[nH]c2n1 | -1.09% |

Just so you know, measured inhibition for Cc1ccc(C(=O)NC2CCCCC2)cc1-c1ccc(C(=O)NCC2CC2)cc1 came out at 5.14%

Just so you know, measured inhibition for COc1ccc(-c2nn3ncccc3c2-c2ccnc(Nc3ccc(Cl)c(C(F)(F)F)c3)n2)cc1 came out at -3.23%

Just so you know, measured inhibition for NS(=O)(=O)c1ccc(N/N=C2\C(=O)Nc3ccc(C(=O)NCCc4c[nH]cn4)cc32)cc1 came out at 17.2%
